Form field: Fold to WT (koff) (one value per entry).
Target: T1, human folate receptor alpha (hFRα), recombinant protein (human, UniProt P15328 25-233)
T1 construct: Bought recombinant proteins (His-tagged, or biotinylated via Avi-tag, e.g. AcroBiosystems FO1-H82E2, F01-H52H1); also called hFOLR1; huFOLR1
T1 sequence (P15328 25-233 limits assumed): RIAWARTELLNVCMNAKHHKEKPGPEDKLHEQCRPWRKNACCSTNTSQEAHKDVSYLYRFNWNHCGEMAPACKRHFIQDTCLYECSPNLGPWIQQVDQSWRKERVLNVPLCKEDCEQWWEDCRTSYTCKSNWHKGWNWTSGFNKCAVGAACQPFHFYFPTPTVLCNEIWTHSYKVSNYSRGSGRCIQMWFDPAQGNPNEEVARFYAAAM
Assay: BLI, biotinylated FOLR1 on streptavidin biosensors
Just the number, please.

[[record]]
binder = "2MFR67 (E72D, D72N, S74A)-NT (VHH, not shown: small tags and cut ends, Second substitution printed D72N; also called 2MFR67 triple mutant) VHH: QVQLQESGGGLVQAGGSLRLSCAASGSGFSGMIMGWYRQAPGKQRELVATVTSHGTTNYADSVKGRFTISRDNAKNTVLLQMNSLKPEDTAVYYCNAHFPGIYWGKGTQVTVSS"
assay_metric = "Fold to WT (koff)"
value_reported = 2.9

[[record]]
binder = "2HFO9(G54H)-NT (VHH, not shown: neurotensin tridecapeptide (NT) and any linker or tags of the fusion) VHH: QVQLQESGGGLVQAGGSLRLSCAASGSGFSGMIMGWYRQAPGKQRELVATITSHGTTNYADSVKGRFTISRDNAKNTVLLQMNSLKPEDTAVYYCNAHFPGIYWGKGTQVTVSS"
assay_metric = "Fold to WT (koff)"
value_reported = 0.6

[[record]]
binder = "2HFO9 (I51V,G54H)-NT (VHH, not shown: neurotensin tridecapeptide (NT) and any linker or tags of the fusion) VHH: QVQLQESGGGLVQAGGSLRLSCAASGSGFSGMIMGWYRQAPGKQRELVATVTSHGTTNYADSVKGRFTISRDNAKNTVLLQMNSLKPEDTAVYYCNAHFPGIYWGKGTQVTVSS"
assay_metric = "Fold to WT (koff)"
value_reported = 0.7


Please find the next binder below.
May I ask what Fold to WT (koff) has been recorded for 2HFO9(I51V)-NT (VHH, not shown: neurotensin tridecapeptide (NT) and any linker or tags of the fusion) VHH: QVQLQESGGGLVQAGGSLRLSCAASGSGFSGMIMGWYRQAPGKQRELVATVTSGGTTNYADSVKGRFTISRDNAKNTVLLQMNSLKPEDTAVYYCNAHFPGIYWGKGTQVTVSS ?
1
